Attribution: paper PMC8125178

TEST SYSTEM: T1, BODIPY-β-annulus peptide (tomato bushy stunt virus, BODIPY-maleimide added by Michael addition to the thiol of the N-terminal Cys)
T1 construct: also called BODIPY-labelled β-annulus peptide; fluorescent-labelled β-annulus peptide; source: synthetic peptide (solid-phase Fmoc chemistry; labelled with BODIPY-maleimide; purified by reversed-phase HPLC)
T1 peptide: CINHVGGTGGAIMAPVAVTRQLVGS
PROTOCOL TEXT: fluorescence correlation spectroscopy (FCS); 0.1 μM BODIPY-β-annulus peptide with 0~200 μM β-annulus peptide in 10 mM Tris-HCl buffer (pH 7.0) with 20 wt% PEG2000, 25 °C; ratio of the slow component fitted to the Hill equation
APPLIED CONDITIONS: both partners purified
OBSERVABLE: pKd
When answering, recall that pKd equals minus log10 of the concentration in mol/L, and write that number alone.

Noted for INHVGGTGGAIMAPVAVTRQLVGS (also called unmodified β-annulus peptide; source: synthetic peptide (solid-phase Fmoc chemistry, purified by reversed-phase HPLC)) [24-mer β-annulus peptide from tomato bushy stunt virus] : its pKd reads 5.25
